Task for the reader: assign each of the following binders its reported BMPRIa binding (relative to wild type = 1.0).
molecular target: T1, BMPRIa receptor-Fc fusion (UniProt P36894 24-152, limits assumed); assay: ELISA-like plate assay, captured BMP-7 from conditioned media, receptor-Fc detection
T1 construct: also called ALK-3
T1 sequence (P36894 24-152 limits assumed): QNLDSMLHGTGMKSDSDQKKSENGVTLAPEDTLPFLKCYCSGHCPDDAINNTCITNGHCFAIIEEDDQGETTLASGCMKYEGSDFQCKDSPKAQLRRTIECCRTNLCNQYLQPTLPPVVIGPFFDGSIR

Reference set, count: 6
Q: For the binder BMP-7 variant Y44N (ligand, In conditioned media; numbering on mature BMP-7) STGGKQRSQNRSKTPKNQEALRMASVAENSSSDQRQACKKHELNVSFRDLGWQDWIIAPEGYAAYYCEGECAFPLNSYMNATNHAIVQTLVHFINPETVPKPCCAPTQLNAISVLYFDDSSNVILKKYRNMVVRACGCH , what BMPRIa binding (relative to wild type = 1.0) is on record?
Ans: 2.05 relative to wild type

Q: For the binder BMP-7 variant F73D (ligand, In conditioned media; numbering on mature BMP-7) STGGKQRSQNRSKTPKNQEALRMASVAENSSSDQRQACKKHELYVSFRDLGWQDWIIAPEGYAAYYCEGECADPLNSYMNATNHAIVQTLVHFINPETVPKPCCAPTQLNAISVLYFDDSSNVILKKYRNMVVRACGCH , what BMPRIa binding (relative to wild type = 1.0) is on record?
Ans: 0.33 relative to wild type

Q: For the binder BMP-7 variant R48N (ligand, In conditioned media; numbering on mature BMP-7) STGGKQRSQNRSKTPKNQEALRMASVAENSSSDQRQACKKHELYVSFNDLGWQDWIIAPEGYAAYYCEGECAFPLNSYMNATNHAIVQTLVHFINPETVPKPCCAPTQLNAISVLYFDDSSNVILKKYRNMVVRACGCH , what BMPRIa binding (relative to wild type = 1.0) is on record?
Ans: 1.87 relative to wild type

Q: For the binder BMP-7 variant I86K (ligand, In conditioned media; numbering on mature BMP-7) STGGKQRSQNRSKTPKNQEALRMASVAENSSSDQRQACKKHELYVSFRDLGWQDWIIAPEGYAAYYCEGECAFPLNSYMNATNHAKVQTLVHFINPETVPKPCCAPTQLNAISVLYFDDSSNVILKKYRNMVVRACGCH , what BMPRIa binding (relative to wild type = 1.0) is on record?
Ans: 0.81 relative to wild type

Q: For the binder BMP-7 variant R129D (ligand, In conditioned media; numbering on mature BMP-7) STGGKQRSQNRSKTPKNQEALRMASVAENSSSDQRQACKKHELYVSFRDLGWQDWIIAPEGYAAYYCEGECAFPLNSYMNATNHAIVQTLVHFINPETVPKPCCAPTQLNAISVLYFDDSSNVILKKYDNMVVRACGCH , what BMPRIa binding (relative to wild type = 1.0) is on record?
Ans: 0.93 relative to wild type

Q: For the binder BMP-7 variant I86D (ligand, In conditioned media; numbering on mature BMP-7) STGGKQRSQNRSKTPKNQEALRMASVAENSSSDQRQACKKHELYVSFRDLGWQDWIIAPEGYAAYYCEGECAFPLNSYMNATNHADVQTLVHFINPETVPKPCCAPTQLNAISVLYFDDSSNVILKKYRNMVVRACGCH , what BMPRIa binding (relative to wild type = 1.0) is on record?
Ans: 1.03 relative to wild type

Next, consider the following binder.
Q: For the binder BMP-7 variant I86E (ligand, In conditioned media; numbering on mature BMP-7) STGGKQRSQNRSKTPKNQEALRMASVAENSSSDQRQACKKHELYVSFRDLGWQDWIIAPEGYAAYYCEGECAFPLNSYMNATNHAEVQTLVHFINPETVPKPCCAPTQLNAISVLYFDDSSNVILKKYRNMVVRACGCH , what BMPRIa binding (relative to wild type = 1.0) is on record?
Ans: 0.66 relative to wild type
